Test Protocol: Cytotoxicity against CHOK1 cells after 24 hrs by MTT assay
Format: cell-based
Condition Info: Cricetulus griseus, CHO-K1, 24 h
Test Readout: pIC50
One number for each entry, as −log10 of the molar value.

Quick one: give me pIC50 for each item below, same order please.
1. CCCCCCCCCCCCCCCC[n+]1ccc2c(O)cccc2c1
2. CCCCCCCCCC[n+]1ccc2ccccc2c1
3. CCCCCCCCCCCCCC[n+]1ccc2ccccc2c1
4. CCCCCCCCCCCC[n+]1ccc2c(O)cccc2c1
5. CCCCCCCCCCCC[n+]1ccc2ccccc2c1 [LAURYL ISOQUINOLINIUM BROMIDE]

1: 4.80; 2: 4.39; 3: 5.05; 4: 4.44; 5: 4.82

Would you mind listing pIC50 for each of the following compounds?
1. CCCCCCCCCCCCCCCC[N+](C)(C)Cc1ccccc1
2. CCCCCCCCCCCCCC[n+]1ccc2c(O)cccc2c1
3. CCCCCCCCCCCCCCCC[n+]1ccc2ccccc2c1
4. CCCCCCCCCCCCCCCCCC[n+]1ccc2ccccc2c1
5. CCCCCCCCCCCCCC[N+](C)(C)Cc1ccccc1

1. 4.82
2. 4.62
3. 5.15
4. 5.22
5. 4.62

Consider the following items and state reported pIC50 for each.
1. CCCCCCCCCC[n+]1ccc2c(O)cccc2c1
2. CCCCCCCCCCCCCCCCCC[n+]1ccc2c(O)cccc2c1
3. CCCCCCCCCCCC[N+](C)(C)Cc1ccccc1

4.04
5.15
4.54

Data origin, for the record: ChEMBL document CHEMBL3751693
